Hey, just so you know, these numbers are from patent US20160137639A1.

target: mouse RORγ (Mus musculus, UniProt P51450); construct: mouse, NM_011281.2 and from Ile251 to Lys516; expressed in transfected cells; host or cells: CHO cells (transient co-transfection with pG5-Luc reporter); assay: Luciferase reporter gene assay of inhibitory effect against RORγ transcriptional activity (GAL4-mRORγ plasmid in CHO cells); format: cell-based; conditions: read-out: LUC EC50 mRORg
Sequence (P51450 251-516): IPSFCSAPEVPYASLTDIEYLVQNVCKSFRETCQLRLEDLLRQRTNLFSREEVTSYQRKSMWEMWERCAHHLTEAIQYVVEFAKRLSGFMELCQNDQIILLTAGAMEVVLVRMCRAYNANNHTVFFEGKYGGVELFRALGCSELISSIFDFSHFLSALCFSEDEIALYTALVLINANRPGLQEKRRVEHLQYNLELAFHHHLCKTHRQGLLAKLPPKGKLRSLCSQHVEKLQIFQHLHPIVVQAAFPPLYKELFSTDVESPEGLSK
pEC50: −log10 of the molar value.
Recorded pEC50, one value per entry.

{"MOLECULE": "Cc1ccc(NC(=O)C[C@H](CCC(=O)O)c2noc3c2C(C)CCC3CCC(C)C)c(Cl)c1 (single isomer, unassigned) [Example F-695]", "MEASUREMENT TARGET": "mouse RORγ (Mus musculus, UniProt P51450)", "pEC50": "> 5.52"}
{"MOLECULE": "Cc1ccc(NC(=O)C[C@H](CCC(=O)O)c2nnn([C@H]3C[C@@H](CC(C)(C)C(C)C)C3)c2C2CC2)c(Cl)c1 [Example F-713]", "MEASUREMENT TARGET": "mouse RORγ (Mus musculus, UniProt P51450)", "pEC50": "> 5.52"}
{"MOLECULE": "Cc1ccc(NC(=O)C[C@H](Cc2nnn[nH]2)c2noc([C@H]3C[C@@H](CC(C)C)C3)c2C2CC2)c(C)c1 [Example F-641]", "MEASUREMENT TARGET": "mouse RORγ (Mus musculus, UniProt P51450)", "pEC50": "> 5.52"}
